Below is a list of entries, each paired with its recorded pKd value.
# Assayed system: T1, LGR5-Fc fusion protein (human, UniProt O75473 22-564)
# T1 construct: range 22-564; Expressed in insect cells with baculovirus, purified on protein A; also called soluble LGR5-Fc; not shown: human Fc
# T1 sequence (looked up): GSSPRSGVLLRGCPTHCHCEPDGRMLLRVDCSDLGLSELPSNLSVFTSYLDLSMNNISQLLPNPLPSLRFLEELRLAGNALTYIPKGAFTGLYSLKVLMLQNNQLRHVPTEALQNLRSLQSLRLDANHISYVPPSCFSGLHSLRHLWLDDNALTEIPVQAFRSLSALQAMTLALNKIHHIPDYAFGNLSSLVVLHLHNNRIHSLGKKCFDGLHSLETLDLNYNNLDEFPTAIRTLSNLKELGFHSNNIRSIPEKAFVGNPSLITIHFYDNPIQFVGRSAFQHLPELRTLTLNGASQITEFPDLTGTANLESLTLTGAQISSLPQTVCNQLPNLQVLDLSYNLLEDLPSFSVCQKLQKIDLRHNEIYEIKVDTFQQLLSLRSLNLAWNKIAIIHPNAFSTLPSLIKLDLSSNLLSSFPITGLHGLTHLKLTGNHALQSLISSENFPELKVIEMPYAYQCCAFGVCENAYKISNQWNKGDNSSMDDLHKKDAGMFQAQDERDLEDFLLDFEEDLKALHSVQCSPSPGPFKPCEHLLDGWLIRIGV
# Test method notes: SPR (Biacore 2000), RSPO-Fc amine-coupled to CM5 chip, soluble LGR5-Fc injected 100-0.78 nM
Field pKd (float): negative decimal logarithm of the concentration in molar.

{"columns": ["Binder", "Value type", "Experimental result"],
 "data": [
  ["RSPO1-Fc fusion protein (Fc fusion, not shown: human Fc region) SRGIKGKRQRRISAEGSQACAKGCELCSEVNGCLKCSPKLFILLERNDIRQVGVCLPSCPPGYFDARNPDMNKCIKCKIEHCEACFSHNFCTKCKEGLYLHKGRCYPACPEGSSAANGTMECSSPAQCEMSEWSPWGPCSKKQQLCGFRRGSEERTRRVLHAPVGDHAACSDTKETRRCTVRRVPCPEGQKRRKGGQGRRENANRNLARKESKEAGAGSRRRKGQQQQQQQGTVGPLTSAGPA", "pKd", 6.96]
]}

# input for lookup
// pKd value for RSPO4-Fc fusion protein (Fc fusion, not shown: a dimerising Fc or GST; small tags and cut ends, Full-length human RSPO4 ligated in-frame to a human Fc region, expressed in insect cells) NRRKKQVGTGLGGNCTGCIICSEENGCSTCQQRLFLFIRREGIRQYGKCLHDCPPGYFGIRGQEVNRCKKCGATCESCFSQDFCIRCKRQFYLYKGKCLPTCPPGTLAHQNTRECQGECELGPWGGWSPCTHNGKTCGSAWGLESRVREAGRAGHEEAATCQVLSESRKCPIQRPCPGERSPGQKKGRKDRRPRKDRKLDRRLDVRPRQPGLQP : 7.14
